Assay overview: Metabolic stability in human liver microsomes assessed as half life
Format: ADME, Microsome
Value type: half-life (min)
Could you give me the number in min? Just the number is fine.

Give recorded half-life. `COc1cc(NC(=O)[C@@H](N)CCc2ccccc2)ccc1-c1cn[nH]c1`
62

Identify the reported half-life for the following entry. `COc1cc(NC(=O)[C@H](O)c2ccccc2Cl)ccc1-c1cn[nH]c1`
15

Provide measured half-life value, entry: `COc1cc(NC(=O)[C@H](N)c2ccccc2Cl)ccc1-c1cn[nH]c1`
20

Quickly give me recorded half-life for `COc1cc(NC(=O)[C@H](N)Cc2ccc(Cl)c(Cl)c2)ccc1-c1cn[nH]c1`
31

Note down half-life recorded for `COc1cc(NC(=O)Cc2ccccc2Cl)ccc1-c1cn[nH]c1`
36

Retrieve half-life measured for `COc1cc(NC(=O)[C@H](N)CCc2ccccc2)ccc1-c1cn[nH]c1` and print it.
41

---

This section presents molecules with their documented remaining at 10 min, 0.5 µM values.
Assay overview: Metabolic stability in human liver microsomes assessed as parent compound remaining at 0.5 uM after 10 mins
Assay type: ADME, Microsome
Experimental setup: read-out: Stabilty
The figure you give is taken to be in %; do not add the unit.

COc1cccc(CNC(=O)c2ccc(-c3cn[nH]c3)c(OC)c2)c1 ... 49

Identify the reported remaining at 10 min, 0.5 µM for the following entry. `COc1cc(C(=O)N[C@H](C)c2ccccc2F)ccc1-c1cn[nH]c1`
73

Return value of remaining at 10 min, 0.5 µM for input `COc1cc(C(=O)N[C@H](CO)c2ccccc2)ccc1-c1cn[nH]c1` , no commentary.
87

Give recorded remaining at 10 min, 0.5 µM. `COc1cccc([C@@H](C)NC(=O)c2ccc(-c3cn[nH]c3)c(C(F)(F)F)c2)c1`
44

---

Quick reference: remaining at 10 min, 0.5 µM of the listed items.
Assay overview: Metabolic stability in human liver microsomes assessed as parent compound remaining at 0.5 uM after 10 mins
Assay type: ADME, Microsome
Experimental setup: read-out: Stabilty
Give just the numeric value; % need not be written.

Completed entries (count: 5):
COc1cccc([C@@H](C)NC(=O)c2ccc(-c3cn[nH]c3)c(OC)c2F)c1 ... 57
COc1cc(C(=O)N[C@H](CN)c2ccccc2)ccc1-c1cn[nH]c1 ... 93
COc1cccc([C@@H](C)NC(=O)c2ccc(-c3cn[nH]c3)c(OC)c2)c1 ... 32
COc1cccc([C@@H](C)NC(=O)c2ccc(-c3cn[nH]c3)c(C#N)c2)c1 ... 67
COc1cc(C(=O)N[C@H](CO)c2c(F)cccc2F)ccc1-c1cn[nH]c1 ... 90

For the molecule `COc1cccc([C@@H](C)NC(=O)c2ccc(-c3cn[nH]c3)c(Cl)c2)c1` , report remaining at 10 min, 0.5 µM.
59

Sourced from ChEMBL document CHEMBL4665755
